Source: paper PMC11073699

# Subject Of Test: AaegOR6 (Aedes aegypti)
# Sequence (A0A1S4G757 1-398): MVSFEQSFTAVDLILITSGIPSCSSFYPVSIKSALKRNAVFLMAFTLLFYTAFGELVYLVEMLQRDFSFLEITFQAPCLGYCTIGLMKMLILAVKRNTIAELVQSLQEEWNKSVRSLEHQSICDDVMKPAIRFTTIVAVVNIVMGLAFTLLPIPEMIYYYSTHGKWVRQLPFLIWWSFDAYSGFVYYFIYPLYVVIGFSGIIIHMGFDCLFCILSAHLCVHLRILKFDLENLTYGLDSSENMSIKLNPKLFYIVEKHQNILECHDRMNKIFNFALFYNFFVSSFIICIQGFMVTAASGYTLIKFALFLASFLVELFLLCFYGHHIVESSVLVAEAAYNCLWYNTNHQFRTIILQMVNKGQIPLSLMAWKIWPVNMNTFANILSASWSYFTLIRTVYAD
# Sequence (Q178U6 1-478 partner): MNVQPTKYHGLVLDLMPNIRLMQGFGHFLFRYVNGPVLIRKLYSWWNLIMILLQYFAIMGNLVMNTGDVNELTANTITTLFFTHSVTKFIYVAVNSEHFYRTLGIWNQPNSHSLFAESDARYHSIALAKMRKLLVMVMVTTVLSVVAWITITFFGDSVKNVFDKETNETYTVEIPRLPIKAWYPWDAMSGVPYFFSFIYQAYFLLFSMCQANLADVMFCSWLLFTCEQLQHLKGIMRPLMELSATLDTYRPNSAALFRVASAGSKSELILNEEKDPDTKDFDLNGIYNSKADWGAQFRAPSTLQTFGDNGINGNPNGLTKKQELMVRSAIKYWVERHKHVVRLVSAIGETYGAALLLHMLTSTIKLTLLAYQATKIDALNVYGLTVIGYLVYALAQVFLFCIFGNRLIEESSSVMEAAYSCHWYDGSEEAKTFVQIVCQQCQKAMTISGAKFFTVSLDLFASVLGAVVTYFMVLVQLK
# Measurement Protocol: Two-electrode voltage clamp of Xenopus laevis oocytes expressing AaegOR6/Orco (blends, unitary compounds, concentration-response)
# Format: cell-based
# Experimental Setup: Indoles 2 unitary compounds; oocyte 6
Observable: Raw data (Responses in nA) Oocyte 6

Some entries whose results are on file:
Molecule	Raw data (Responses in nA) Oocyte 6
Oc1cccc2[nH]ccc12 [4-Hydroxyindole]	0.0 nA
O=C1Nc2ccccc2C1=O	0.0 nA
OCc1c[nH]c2ccccc12	0.0 nA

input: Which Raw data (Responses in nA) Oocyte 6 value is on record for O=C(O)Cc1c[nH]c2ccccc12 ?
output: 0.0 nA

input: Which Raw data (Responses in nA) Oocyte 6 value is on record for c1ccc2ncncc2c1 ?
output: 10.0 nA

input: Which Raw data (Responses in nA) Oocyte 6 value is on record for c1ccc2nccnc2c1 ?
output: 0.0 nA

input: Which Raw data (Responses in nA) Oocyte 6 value is on record for c1ccc2ncccc2c1 ?
output: 10.0 nA

input: Which Raw data (Responses in nA) Oocyte 6 value is on record for O=C1Cc2ccccc2N1 ?
output: 0.0 nA
